Molecular target: Nuclear receptor coactivator 1 (Homo sapiens)
Experiment: SRC1 (NCOA1) coactivator inhibitors, dose response, cell-based, luciferase reporter, luminescence (AID 602235);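 note: cells transfected with pGL4.31 reporter plus pBIND-SRC1 vector; potency is for inhibitors that lower SRC1 reporter luminescence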
Active and inactive are the calls of the source. The rule behind the calls is not given here.
propertyLabel: IC50

Consider the reported IC50 for these compounds:
>>> measurement("OCCN(CCO)CC(O)COc1ccc(C23CC4CC(CC(C4)C2)C3)cc1 (centres undefined)")
"> 35.9 µM (inactive)"
>>> measurement("Cc1c(/C(O)=C2/C(=O)C(=O)N(Cc3cccnc3)C2c2ccccn2)cnn1-c1ccccc1 (centres undefined)")
"inactive"
>>> measurement("CCCCCOc1ccc(/C=C/c2c([N+](=O)[O-])c(=O)n(C)c(=O)n2C)cc1")
"9.08 µM"
>>> measurement("O=C(COC(=O)c1ccc[nH]c1=O)Nc1ccc(N2CCCCC2)cc1")
"> 35.9 µM (inactive)"

Query (compound): O=C(Nc1cccnc1)c1ccc(C(=O)Nc2cccnc2)cc1 ; field requested: IC50
> 35.9 µM (inactive)

Query (compound): COc1cc(OC)c2cc(C(=O)N/N=C/c3cccc(OC)c3O)[nH]c2c1 ; field requested: IC50
inactive

###

Target: Nuclear receptor coactivator 1 (Homo sapiens) (UniProt Q15788)
Sequence (Q15788 whole entry, looked up): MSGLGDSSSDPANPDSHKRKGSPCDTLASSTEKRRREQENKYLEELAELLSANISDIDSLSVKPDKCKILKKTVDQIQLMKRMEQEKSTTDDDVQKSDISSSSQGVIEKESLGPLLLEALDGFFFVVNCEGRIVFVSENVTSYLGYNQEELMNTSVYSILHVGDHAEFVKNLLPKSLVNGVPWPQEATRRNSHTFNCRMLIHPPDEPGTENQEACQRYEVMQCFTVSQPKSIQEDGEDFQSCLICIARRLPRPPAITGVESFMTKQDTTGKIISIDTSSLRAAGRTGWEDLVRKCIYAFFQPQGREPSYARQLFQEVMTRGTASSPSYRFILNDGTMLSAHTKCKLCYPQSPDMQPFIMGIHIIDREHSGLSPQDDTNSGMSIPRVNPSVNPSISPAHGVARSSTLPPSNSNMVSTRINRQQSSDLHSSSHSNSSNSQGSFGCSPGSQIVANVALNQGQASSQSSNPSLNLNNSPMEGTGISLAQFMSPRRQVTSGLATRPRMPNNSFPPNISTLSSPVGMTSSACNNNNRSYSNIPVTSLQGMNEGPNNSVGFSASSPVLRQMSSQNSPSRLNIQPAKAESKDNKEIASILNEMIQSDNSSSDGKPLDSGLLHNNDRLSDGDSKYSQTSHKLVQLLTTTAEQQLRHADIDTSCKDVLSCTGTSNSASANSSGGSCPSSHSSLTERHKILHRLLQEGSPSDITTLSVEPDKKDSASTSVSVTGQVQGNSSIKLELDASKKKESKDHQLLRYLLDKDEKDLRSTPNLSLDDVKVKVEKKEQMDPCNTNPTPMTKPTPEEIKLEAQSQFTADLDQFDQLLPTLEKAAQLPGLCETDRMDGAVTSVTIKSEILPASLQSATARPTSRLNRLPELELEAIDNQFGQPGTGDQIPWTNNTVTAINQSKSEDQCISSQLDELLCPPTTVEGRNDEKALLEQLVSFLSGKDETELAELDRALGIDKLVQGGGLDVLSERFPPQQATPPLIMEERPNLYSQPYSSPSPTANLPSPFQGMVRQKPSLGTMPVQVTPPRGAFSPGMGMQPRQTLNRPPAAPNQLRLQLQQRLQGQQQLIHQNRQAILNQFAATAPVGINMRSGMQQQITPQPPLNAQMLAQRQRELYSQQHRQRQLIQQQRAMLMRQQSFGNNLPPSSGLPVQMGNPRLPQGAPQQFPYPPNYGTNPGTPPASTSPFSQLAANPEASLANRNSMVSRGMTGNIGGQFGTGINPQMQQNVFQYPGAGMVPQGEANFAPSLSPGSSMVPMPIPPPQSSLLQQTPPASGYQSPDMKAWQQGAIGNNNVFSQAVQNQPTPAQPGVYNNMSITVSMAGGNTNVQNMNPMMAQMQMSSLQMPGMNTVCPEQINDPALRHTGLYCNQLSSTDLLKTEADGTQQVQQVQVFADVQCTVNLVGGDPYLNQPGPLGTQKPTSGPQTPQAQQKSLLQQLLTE
Assay: SRC1 (NCOA1) coactivator inhibitors, dose response, cell-based, luciferase reporter, luminescence (AID 602235)
The source made the active and inactive calls. The rule behind the calls is not given here.
propertyLabel: IC50

Please review the following examples before continuing.
>>> measurement("Cc1sc2ncnc(N3CCC(C(=O)N(C)CC(=O)Nc4cccc(F)c4)CC3)c2c1C")
"> 12 µM (inactive)"
>>> measurement("O=C(N/N=C(\\c1ccccc1)c1ccccn1)c1ccccc1Cl")
"inactive"
>>> measurement("Cc1c(C(=O)N/N=C/C(C)C)[nH]c2ccc([N+](=O)[O-])cc12")
"inactive"
>>> measurement("CCCc1cc(C(=O)N(C)CC(=O)Nc2ccc(OCC)c(OCC)c2)sc1C")
"> 35.9 µM (inactive)"
>>> measurement("CC1CCCCN1c1ncnc2ccccc12 (configuration not stated)")
"> 35.9 µM (inactive)"

As a next step, examine the molecule that follows.
Record request: IC50 value, item CC(=O)NC(c1cc(Cl)c2cccnc2c1O)C1CC1 (configuration not stated)
inactive

###

Target: UniProtKB Q15788
Assay: SRC1 (NCOA1) coactivator inhibitors, dose response, cell-based, luciferase reporter, luminescence (AID 602235)
Calls of active or inactive are those of the source. The rule behind the calls is not given here.
propertyLabel: IC50

Reference set, count: 4
>>> measurement("O=C(CCl)NC(Cc1ccccc1)c1ccccc1 (configuration not stated)")
"inactive"
>>> measurement("Cc1ccc(C)c(NC(=O)c2ccccc2NS(=O)(=O)c2cc([N+](=O)[O-])ccc2C)c1")
"4.81 µM"
>>> measurement("CN(c1ccc(C(=O)N2CCN(Cc3ccc4c(c3)OCO4)CC2)cc1)S(=O)(=O)c1ccccc1")
"> 35.9 µM (inactive)"
>>> measurement("COC(CN(C(=O)CCl)C(C(=O)NC1CCCCC1)c1ccccc1C)OC (configuration not stated)")
"9.53 µM"

Request the reported IC50 associated with O=C(O)c1ccccc1C(=O)Nc1ccc(Oc2cccc3ccccc23)cc1
> 35.9 µM (inactive)

Entry COc1ccccc1-c1cc2nc(-c3ccccc3)cc(N3CCN(C(=O)c4ccco4)CC3)n2n1 : reported IC50 = ?
inactive

Please give the measured IC50 for this compound: CCN(Cc1ccncc1)C(=O)CC1C(=O)NCCN1Cc1ccc(F)c(F)c1 (configuration not stated)
inactive

Consider the compound Nc1ncccc1C(=O)OCC(=O)N1CCN(S(=O)(=O)c2ccc(Cl)cc2)CC1 and give its measured IC50.
inactive

###

Target: UniProt Q15788
Assay: SRC1 (NCOA1) coactivator inhibitors, dose response, cell-based, luciferase reporter, luminescence (AID 602235)
Active and inactive are the calls of the source. No rule for the calls is given here.
Please state which outcome applies, choosing from active, inactive

The examples below pair each entry with its known result.
>>> classification("COc1ccccc1N(C(=O)CCl)c1cn(C(C)=O)c2ccccc12")
"inactive"
>>> classification("Cc1ccc(/C=C2/SC(=S)N(CCCC(=O)Nc3ccc(O)cc3)C2=O)cc1")
"inactive"
>>> classification("CCCCC(CC)COCCCN=Cc1c(O)[nH]c(=S)[nH]c1=O (stereo not drawn)")
"inactive"
>>> classification("COC(=O)N(NC(=O)C(O)(CCC(C)C)CCC(C)C)c1ccccc1")
"inactive"
>>> classification("CC(=O)N1CCN(c2ccc(Oc3ncnc4sccc34)cc2)CC1")
"inactive"
>>> classification("NC(=S)NN=Cc1nccc2c(N)cccc12")
"inactive"
>>> classification("COc1ccc(/C=C2\\CC/C(=C\\c3ccc(OC)c(OC)c3)C2=O)cc1OC")
"inactive"
>>> classification("CC(=O)NC(c1cc(Cl)c2cccnc2c1O)C(C)C (stereo not drawn)")
"inactive"

Short answer needed: outcome of this test for O=C1c2cccc(OCc3ccc(F)cc3)c2CCN1Cc1ccccc1 ?
inactive

Hi team, can someone confirm the assay call for CCN(CC(=O)Nc1ccc(NC(C)=O)cc1)C(=O)C1(c2ccc(Cl)cc2)CCC1 ?
inactive

What call does the record list for O=C(CCn1cnc(-c2ccccc2)c1-c1ccccc1)N/N=C/c1ccccc1O ?
inactive

What did the test return for COc1ccc(NC(=O)CN(C)C(=O)C2(c3ccccc3)CCCC2)cc1 ?
inactive

Please share the test call associated with CCCCCCCC[n+]1c(C)n(-c2ccccc2)c2ccc(NC(C)=O)cc21 .
inactive

###

Target: Nuclear receptor coactivator 1 (Homo sapiens)
Test: SRC1 (NCOA1) coactivator inhibitors, dose response, cell-based, luciferase reporter, luminescence (AID 602235);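 note: cells transfected with pGL4.31 reporter plus pBIND-SRC1 vector; potency is for inhibitors that lower SRC1 reporter luminescence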
Active and inactive are the calls of the source. The rule behind the calls is not given here.
The reply should name one outcome from active, inactive

Some solved entries appear below for comparison.
>>> classification("CCn1c(Oc2ccc(F)cc2)nc2c1c(=O)n(C)c(=O)n2C")
"inactive"
>>> classification("COc1cccc2c1C(=N)c1c(O)c3c(c(O)c1C2=O)CC(O)(C(C)=O)CC3OC1CC(N)C(O)C(C)O1 (stereo not drawn)")
"inactive"
>>> classification("Fc1ccc(CSc2nnc(-c3ccncc3)o2)cc1")
"active"
>>> classification("O=C(CCC(=O)Nc1ccc(Br)cc1)N/N=C/c1ccccc1O")
"active"
>>> classification("CCOc1cc(C(N)=O)cc(Br)c1OC")
"inactive"

I'd appreciate the recorded outcome for CN(C)C=Nc1c(C(=O)c2ccccc2)sc2nccc(N(C)C)c12 from this test.
active

Can you look up the reported call for CC(NC(=O)COC(=O)c1cccs1)c1ccccc1 (stereo not drawn) for me?
inactive

// param item: Cc1ccc(NC(=O)C2CCN(c3ncnc4sc(C)c(C)c34)CC2)cc1S(=O)(=O)N(C)C ; yields the recorded call
inactive

Hello, I am checking results. What call was entered for Nc1nc(CCl)nc(Nc2cccc3ccccc23)n1 ?
inactive

Entry N#Cc1c2ccc(O)cc2n2ccccc12 : call = ?
inactive

What did the test return for O=C(CSc1nc(-c2cccs2)cc(C(F)(F)F)n1)Nc1cc(OCC(F)(F)C(F)F)cc([N+](=O)[O-])c1 ?
inactive

# lookup: test call for CCOc1ccc(-c2noc(CCC(=O)O)n2)cc1
inactive

Hi, do you know how O=C(CCl)N(c1ccccc1)C1CCS(=O)(=O)C1 (stereo not drawn) came out in this test?
active

So what was the verdict on O=C(N/N=C/c1cc([N+](=O)[O-])ccc1O)c1cccc(N2CCCC2=O)c1 in this test?
inactive

// param item: CCc1ccc(/C=C2\SC(=S)N(CCCC(=O)NCCCN3CCOCC3)C2=O)cc1 ; yields the recorded call
active

// return assay outcome for C=CCOc1ccc(/C=C2\SC(=S)N(CCC(=O)O)C2=O)cc1
inactive

Hi team, can someone confirm the assay call for Oc1ccc(C=NNc2ccccn2)c(O)c1 ?
inactive

###

Target: Nuclear receptor coactivator 1 (Homo sapiens) (UniProt Q15788)
Experiment: SRC1 (NCOA1) coactivator inhibitors, dose response, cell-based, luciferase reporter, luminescence (AID 602235);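 note: cells transfected with pGL4.31 reporter plus pBIND-SRC1 vector; potency is for inhibitors that lower SRC1 reporter luminescence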
Activity calls are given as the source filed them. No rule for the calls is given here.
propertyLabel: IC50

# annotated cases, reported IC50 shown
>>> measurement("NC(=S)NN=Cc1ccc(OC(=O)COc2cc(Cl)c(Cl)cc2Cl)cn1")
"inactive"
>>> measurement("O=C(NC1CCCCC1)C(c1cccnc1)N(C(=O)CCl)c1cccc(Cl)c1 (centres undefined)")
"6.91 µM"
>>> measurement("COc1ccc(OC)c(/C=C2\\NC(=O)NC2=O)c1")
"7.42 µM"
>>> measurement("Cc1nc2ccccn2c1-c1ccnc(=S)[nH]1")
"6.33 µM"
>>> measurement("CC(C)Cn1c(N)c(C(=O)COC(=O)c2cc3ccccc3cc2O)c(=O)n(C)c1=O")
"> 35.9 µM (inactive)"

Turning to the following compound.
Please report the recorded IC50 for COc1ccc(Nc2ncnc3ccc(C)cc23)cc1 .
3.97 µM

###

Biological target: Nuclear receptor coactivator 1 (Homo sapiens)
Assay: SRC1 (NCOA1) coactivator inhibitors, dose response, cell-based, luciferase reporter, luminescence (AID 602235);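 note: cells transfected with pGL4.31 reporter plus pBIND-SRC1 vector; potency is for inhibitors that lower SRC1 reporter luminescence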
Active and inactive are the calls of the source. No rule for the calls is given here.
Your answer must be one of the following: True = active, False = inactive

// known answers, use as guide
>>> classification("O=C(Nc1ccncc1)c1ccccc1[N+](=O)[O-]")
"True"
>>> classification("CN(C)c1ccc(/C=C/c2nc3ccccc3s2)cc1")
"False"
>>> classification("CCCS(=O)(=O)c1c(S(=O)(=O)CCC)c2c(C)cccn2c1C(=O)N/N=C/c1cc(O)cc(O)c1")
"False"
>>> classification("Cn1nc(C(F)(F)F)c(C#N)c1N1CCN(c2ccccc2)CC1")
"True"

Field: next molecule
What was the test verdict on CCN(C(=O)c1cc(S(=O)(=O)N2CCCCC2)c[nH]1)c1ccc(OC)cc1 ?
False
